- Assay Summary: in vitro
- Applied Conditions: mouse, microsomes
Measured Property: half-life

1) C[C@]12CC[C@H]3[C@@H](CCC4=CC(=O)CC[C@@]43C)[C@@H]1CC[C@@H]2O	3.2 min

Let us move to another entry and its half-life.
The reported value for Oc1cccc2c1O[C@H]1CN(C[C@H]3C[C@@H]3c3ccccc3)[C@H]3CCC[C@@]21C3 [(+)-17] in terms of half-life is 6.9 min

---

Data export: pIC50 values recorded with human δ-opioid receptor (OPRD1) (Homo sapiens, UniProt P41143).
Sequence (P41143 whole entry): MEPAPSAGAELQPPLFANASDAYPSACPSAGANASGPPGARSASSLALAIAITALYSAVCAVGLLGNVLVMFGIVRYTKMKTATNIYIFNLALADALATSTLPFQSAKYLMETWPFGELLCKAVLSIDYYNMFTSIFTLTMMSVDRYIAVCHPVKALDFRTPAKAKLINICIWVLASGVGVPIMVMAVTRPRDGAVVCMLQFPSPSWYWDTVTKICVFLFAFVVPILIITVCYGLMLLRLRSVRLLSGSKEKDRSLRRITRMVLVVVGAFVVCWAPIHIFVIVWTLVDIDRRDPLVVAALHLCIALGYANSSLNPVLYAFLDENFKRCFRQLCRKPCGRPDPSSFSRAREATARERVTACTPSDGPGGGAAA
Scale note: pIC50 = -log10(concentration in M).

Query Oc1cccc2c1O[C@H]1CN(CCc3ccccc3)[C@H]3CCC[C@@]21C3 [(-)-1] on human δ-opioid receptor (OPRD1) (Homo sapiens, UniProt P41143); pIC50 returned: 6.39

Query Oc1cccc2c1O[C@H]1CN(C[C@H]3C[C@@H]3c3ccccc3)[C@H]3CCC[C@@]21C3 [(+)-17] on human δ-opioid receptor (OPRD1) (Homo sapiens, UniProt P41143); pIC50 returned: 6.31
